# Test system: HeLa cells
# method-summary: Cell proliferation assay, photographic image analysis of proliferation, apoptosis and death (PAD assay), HeLa
# Assay type: cell-based
# Parameters: key: “+” indicates that the compound exibits inhibitory activity; “−” indicates that low or no inhibitory activity was observed
# measurement-parameters: 6 concentrations tested
observable: PAD Assay, HELA 6 pt

Cc1cc(NS(=O)(=O)c2cc(Cl)c(Oc3ccc([N+](=O)[O-])cc3Cl)c(Cl)c2)no1: −
O=S(=O)(c1ccccc1C(F)(F)F)N1CCC(Oc2ccccc2C(F)(F)F)CC1: +
O=C(NCC1CC1)c1ccccc1NS(=O)(=O)c1cc(Cl)c(Oc2ccc([N+](=O)[O-])cc2Cl)c(Cl)c1: +
O=S(=O)(Nc1ccc(Oc2cc(C(F)(F)F)ccn2)cc1)c1ccccc1C(F)(F)F: −

Recall the recorded PAD Assay, HELA 6 pt for "O=[N+]([O-])c1ccc(Oc2c(Cl)cc(S(=O)(=O)Nc3ccc4[nH]ccc4c3)cc2Cl)c(Cl)c1" with HeLa cells and state it.
+

Can you look up PAD Assay, HELA 6 pt on HeLa cells for "O=S(=O)(Nc1ccc(Oc2ncc(C(F)(F)F)cc2Cl)cc1)c1cccc(Cl)c1" ?
+

Request - read-out PAD Assay, HELA 6 pt | tested on HeLa cells | compound "N=C(NS(=O)(=O)c1cc(Cl)c(Oc2ccc([N+](=O)[O-])cc2)c(Cl)c1)c1ccncc1"
+
